- target: glutathione-S-transferase (GST) tagged LXRbeta LBD (ligand binding domain) (Homo sapiens, UniProt P55055)
- Construct: purchased Invitrogen pv4658.pps
- Sequence (P55055 222-460 limits assumed): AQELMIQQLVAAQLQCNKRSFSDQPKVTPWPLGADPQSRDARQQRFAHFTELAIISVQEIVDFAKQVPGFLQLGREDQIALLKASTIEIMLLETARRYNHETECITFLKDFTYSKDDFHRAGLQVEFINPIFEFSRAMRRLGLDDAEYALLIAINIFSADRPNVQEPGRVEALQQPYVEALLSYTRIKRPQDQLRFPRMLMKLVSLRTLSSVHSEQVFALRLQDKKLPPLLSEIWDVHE
- measurement.protocol: LanthaScreen TR-FRET Liver X Receptor Coactivator Assay, co-activator recruitment to LXRbeta LBD
- Format: biochemical
- measurement.setup: potency (Inflection Point, IP), co-activator recruitment to LXRbeta LBD, in relation to T0901317; read-out: LXR beta IP
Catalogue of pEC50 readings, one per entry.
Please treat pEC50 as minus the base-10 logarithm of the molar concentration.

CS(=O)(=O)c1cccc(N2CCC(CC3CCN(C(=O)[C@](O)(c4ccccc4)C(F)(F)F)CC3)CC2)c1 [Example 2-74]	7.41
NC(=O)c1ccc(N2CCC(CC3CCN(C(=O)[C@](O)(c4cccc(Cl)c4)C(F)(F)F)CC3)CC2)cc1Cl [Example 12-5]	8.40
CN(C)C(=O)c1ccc(N2CCC(CC3CCN(C(=O)[C@](O)(c4cccc(OC5CC5)c4)C(F)(F)F)CC3)CC2)nc1Cl [Example 7-106]	8.30
CC(C)C(O)(C(=O)N1CCC(CC2CCN(c3ccc(C(=O)N(C)C)c(Cl)n3)CC2)CC1)C(F)(F)F (stereo not drawn) [Example 7-59]	6.53
CNC(=O)c1ccc(N2CCC(OC3CCN(C(=O)C(O)(c4cccc(C(F)(F)F)c4)C(F)(F)F)CC3)CC2)cc1Cl (stereo not drawn) [Example 7-28]	6.61
COc1cccc([C@@](O)(C(=O)N2CCC(C)(CC3CCN(c4ccc(C(=O)N(C)C)c(C)c4)CC3)CC2)C(F)(F)F)c1 [Example 2-80]	7.72
CCc1cccc([C@@](O)(C(=O)N2CCC(C)(CC3CCN(c4ccc(C(=O)N(C)C)c(Cl)n4)CC3)CC2)C(F)(F)F)c1 [Example 7-49]	8.22
COc1cccc([C@@](O)(C(=O)N2CCC(CC3CCN(c4ccc(C(=O)N(C)C)c(Cl)n4)CC3)CC2)C(F)(F)C(F)(F)F)c1 [Example 7-79]	8.05

Kindly consider the entry below.
Need pEC50, item COc1cccc(C(O)(C(=O)N2CCC(CC3CCN(c4ccc(C(=O)N(C)C)c(Cl)c4)CC3)CC2)C(F)(F)F)c1F (stereo not drawn) [Example 2-41]
7.85

###

Parameter Emax: see the listing below.
- target: glutathione-S-transferase (GST) tagged LXRbeta LBD (ligand binding domain) (Homo sapiens, UniProt P55055)
- Construct: purchased Invitrogen pv4658.pps
- measurement.protocol: LanthaScreen TR-FRET Liver X Receptor Coactivator Assay, co-activator recruitment to LXRbeta LBD
- Type: biochemical
- measurement.setup: efficacy at max dose, in relation to reference dual agonist T0901317; read-out: LXR beta Activity @ max dose (%)
Give the value in % but do not write % after it.

Some compounds with recorded Emax:
CC(C)C(O)(C(=O)N1CCC(CC2CCN(c3ccc(C(=O)N(C)C)c(Cl)c3)CC2)CC1)C(F)(F)F (centres unmarked) [Example 2-31]	74
Cc1cc(N2CCC(CC3CCN(C(=O)[C@](O)(c4cc(F)cc(Cl)c4)C(F)(F)F)CC3)CC2)ccc1C(=O)N(C)C [Example 2-153]	95
COc1cc(F)cc([C@@](O)(C(=O)N2CCC(CC3CCN(c4ccc(C(=O)N(C)C)c(C)c4)CC3)CC2)C(F)(F)F)c1 [Example 2-152]	74
O=C(NCCn1cncn1)c1ccc(N2CCC(CC3CCN(C(=O)[C@](O)(c4cc(Cl)cc(Cl)c4)C(F)(F)F)CC3)CC2)cc1Cl [Example 7-130]	54
CCOc1cccc([C@@](O)(C(=O)N2CCC(CC3CCN(c4ccc(C(=O)NC)c(Cl)n4)CC3)CC2)C(F)(F)F)c1 [Example 7-137]	82
COc1cccc([C@@](O)(C(=O)N2CCC(OC3CCN(c4ccc(C(=O)N(C)C)c(Cl)c4)CC3)CC2)C(F)(F)F)c1 [Example 2-28]	87

If you can, please state the reported Emax value of O=C(c1ccc(N2CCC(OC3CCN(C(=O)[C@](O)(c4ccccc4)C(F)(F)F)CC3)CC2)cc1Cl)N1CCC[C@H]1CO [Example 4-7] .
76

May I ask what Emax has been recorded for O=C(c1ccc(N2CCC(CC3CCN(C(=O)[C@](O)(c4ccccc4)C(F)(F)F)CC3)CC2)cc1Cl)N1C2CCC1CC2 [Example 4-5] ?
53

Can you share its Emax? I mean this compound: CN(C)C(=O)c1ccc(N2CCC(OC3CCN(C(=O)C(F)(F)F)CC3)CC2)cc1Cl [Example 2-29]
65

Record request: Emax value, item CNC(=O)c1ccc(N2CCC(CC3CCN(C(=O)[C@](O)(c4cc(Cl)cc(Cl)c4)C(F)(F)F)CC3)CC2)nc1Cl [Example 7-134]
78

Given the compound COc1cccc([C@@](O)(C(=O)N2CC(CC3CCN(c4ccc(C(=O)N(C)C)c(C)n4)CC3)C2)C(F)(F)F)c1 [Example 7-10] , what is its reported Emax?
77

###

- target: glutathione-S-transferase (GST) tagged LXRbeta LBD (ligand binding domain) (Homo sapiens, UniProt P55055)
- Construct: purchased Invitrogen pv4658.pps
- measurement.protocol: LanthaScreen TR-FRET Liver X Receptor Coactivator Assay, co-activator recruitment to LXRbeta LBD
- Assay type: biochemical
- measurement.setup: efficacy at max dose, in relation to reference dual agonist T0901317; read-out: LXR beta Activity @ max dose (%)
For each record, check the reported Emax: if it is below 70% write Condition met, else write Condition not met.

Observe how each entry below is paired with its result.
CN(C)C(=O)c1ccc(N2CCC(CC3CCN(C(=O)C(O)(c4cccs4)C(F)(F)F)CC3)CC2)cc1Cl (centres unmarked)	Condition not met
CCN(C)C(=O)c1ccc(N2CCC(CC3CCN(C(=O)[C@](O)(c4ccccc4)C(F)(F)F)CC3)CC2)cc1Cl	Condition not met
CN(C)C(=O)c1ccc(N2CCC(CC3CCN(C(=O)C(O)(c4cccc(C(F)(F)F)c4)C(F)(F)F)CC3)CC2)nc1Cl (centres unmarked)	Condition not met
CNC(=O)c1ccc(N2CCC(CC3CCN(C(=O)[C@](O)(c4cc(F)cc(OC)c4)C(F)(F)F)CC3)CC2)cc1Cl	Condition not met

Consider CN(C)C(=O)c1ccc(N2CCC(OC3CCN(C(=O)C(O)(c4cccc(Cl)c4)C(F)(F)F)CC3)CC2)cc1Cl (centres unmarked) . Does its Emax lie strictly below 70%?
Condition not met

Regarding `CN(C)C(=O)c1ccc(N2CCC(CC3CCN(C(=O)c4c(F)cccc4F)CC3)CC2)cc1Cl` , kindly confirm whether its Emax is beneath 70%.
Condition met

Criterion: Emax strictly below 70%. Is it met by `CN(Cc1ccon1)C(=O)c1ccc(N2CCC(CC3CCN(C(=O)[C@](O)(c4ccccc4)C(F)(F)F)CC3)CC2)cc1Cl` ?
Condition met

Is the reported Emax for `CNC(=O)c1ccc(N2CCC(OC3CCN(C(=O)C4(c5ccccc5F)CCCC4)CC3)CC2)cc1Cl` strictly below 70%?
Condition not met

###

Readings of Emax for the listed compounds
- target: glutathione-S-transferase (GST) tagged LXRalpha LBD (ligand binding domain) (Homo sapiens, UniProt Q13133)
- Construct: purchased Invitrogen pv4655
- Sequence (Q13133 209-447 limits assumed): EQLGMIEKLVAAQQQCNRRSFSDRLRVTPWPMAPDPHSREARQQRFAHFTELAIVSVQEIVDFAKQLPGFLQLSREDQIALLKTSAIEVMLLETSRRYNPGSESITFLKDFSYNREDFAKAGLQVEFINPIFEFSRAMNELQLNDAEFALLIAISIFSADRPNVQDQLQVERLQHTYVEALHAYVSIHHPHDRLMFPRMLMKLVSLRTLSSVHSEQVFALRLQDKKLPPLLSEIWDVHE
- measurement.protocol: LanthaScreen TR-FRET Liver X Receptor Coactivator Assay, co-activator recruitment to LXRalpha LBD
- Type: biochemical
- measurement.setup: efficacy at max dose, in relation to reference dual agonist T0901317; read-out: LXR alpha Activity @ max dose (%)
API: value field is a number in %; no unit string.

Item `CC[C@](O)(C(=O)N1CCC(CC2CCN(c3ccc(C(=O)N(C)C)c(Cl)c3)CC2)CC1)c1ccccc1` has what recorded Emax?
17

Requested read-out: Emax. Entry: CC(C)Oc1cccc(C(O)(C(=O)N2CCC(CC3CCN(c4ccc(C(=O)N(C)C)c(Cl)c4)CC3)CC2)C(F)(F)F)c1 (stereo not drawn)
13

Consider the compound `Cc1cc(N2CCC(CC3CCN(C(=O)OC(C)(C)C)CC3)CC2)ccc1C(=O)N(C)C` and give its measured Emax.
13

###

We begin with a simple list: items and their reported Emax.
- target: glutathione-S-transferase (GST) tagged LXRbeta LBD (ligand binding domain) (Homo sapiens, UniProt P55055)
- Construct: purchased Invitrogen pv4658.pps
- measurement.protocol: LanthaScreen TR-FRET Liver X Receptor Coactivator Assay, co-activator recruitment to LXRbeta LBD
- Type: biochemical
- measurement.setup: efficacy at max dose, in relation to reference dual agonist T0901317; read-out: LXR beta Activity @ max dose (%)
Form entry: value (%) — number only.

CN(C)C(=O)c1ccc(N2CCC(CC3CCN(C(=O)C(O)(c4cccc(F)c4)C(F)F)CC3)CC2)cc1Cl (stereo not drawn)	69
CN(C)C(=O)c1ccc(N2CCC(CC3CCN(C(=O)C(C)(C)c4ccccc4)CC3)CC2)cc1Cl	59

API: the following record is the query input.
Which Emax reading was recorded for the molecule `CN(C)C(=O)c1ccc(N2CCC(CC3CN(C(=O)[C@](O)(c4cccc(OC(F)(F)F)c4)C(F)(F)F)C3)CC2)cc1Cl` ?
79
